Data provenance is patent US7868013B2.

Parameter IC50: see the listing below.
System: A549 (lung carcinoma)
assayInfo: In vitro antiproliferation assay, A549 cells (TABLE 1 6 point assay; TABLE 2)
Format: cell-based
conditionParameters: Homo sapiens, A549, 6 point assay; A549 cells; read-out: IC50, A549 cells

Below: 3 molecules and their reported IC50.
molecule	IC50
Cc1cc(Nc2ncc(F)c(N[C@H]3CC[C@H](C(N)=O)C3)n2)ccc1N1CCN(C)CC1	1000 to 10000 nM
COc1cc(Nc2ncc(F)c(N[C@@H]3[C@H](C(N)=O)[C@H]4C=C[C@@H]3C4)n2)ccc1N1C(=O)CN(C)CC1=O (racemic)	100 to 1000 nM
CN1CCN(c2cccc(Nc3ncc(F)c(NC4CCCC4C(N)=O)n3)c2)CC1 (stereo not drawn)	100 to 1000 nM

Exercise: Requested read-out: IC50. Entry: CN1CCN(c2ccc(Nc3ncc(F)c(NC4C5C=CC(C5)C4C(N)=O)n3)cc2CO)CC1 (racemic)
Key: ≤ 100 nM

Exercise: What about CNC(=O)c1cc(Nc2ncc(F)c(NC3C4C=CC(C4)C3C(=O)OC)n2)ccc1N1CCN(C)CC1 (racemic) ?
Key: 1000 to 10000 nM

Exercise: What about CN1CCN(C(=O)CCCc2ccc(Nc3ncc(F)c(N[C@H]4CCC[C@H]4C(N)=O)n3)cc2)CC1 (racemic) ?
Key: 1000 to 10000 nM
